# Ki annotations
- Target under test: activated JNK3 (Homo sapiens, UniProt P53779)
- Construct: One such construct encodes amino acid residues Ser40-Glu402 of JNK3α1 and is preceded by Met and Gly residues; Met-Gly (initiation Met plus Gly added to create the NcoI site) (N)
- Sequence (P53779 40-402): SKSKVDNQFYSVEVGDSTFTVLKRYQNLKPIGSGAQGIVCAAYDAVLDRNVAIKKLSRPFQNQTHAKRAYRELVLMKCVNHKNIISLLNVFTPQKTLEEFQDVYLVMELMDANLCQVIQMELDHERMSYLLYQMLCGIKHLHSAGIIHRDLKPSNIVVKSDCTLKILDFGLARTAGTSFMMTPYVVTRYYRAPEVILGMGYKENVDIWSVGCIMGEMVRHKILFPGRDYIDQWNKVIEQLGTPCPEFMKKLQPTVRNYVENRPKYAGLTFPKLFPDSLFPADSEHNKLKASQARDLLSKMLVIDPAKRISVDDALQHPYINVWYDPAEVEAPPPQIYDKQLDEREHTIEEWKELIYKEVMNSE
- Measurement description: JNK3 inhibition, spectrophotometric coupled-enzyme assay
- Condition summary: read-out: Activity in the JNK3 Inhibition Assay (Ki rating)

Example entries begin here.
Compound	Ki
O=S1(=O)CCC(OCc2onc(-c3ccc(F)cc3)c2-c2ccnc(NC3CCCCC3)n2)C1 (stereo not drawn)	< 100 nM
Cc1onc(-c2c(F)cccc2F)c1-c1ccnc(Nc2ccc(C#N)cc2)n1	< 100 nM
Cc1cccc(C(=O)Nc2nccc(-c3c(-c4ccccc4F)noc3C)n2)c1	100 to 1000 nM
Cc1onc(-c2ccccc2)c1-c1ccnc(Nc2cccc(CCC(=O)N[C@@H](C(=O)OC(C)(C)C)C(C)C)c2)c1	100 to 1000 nM
Cc1onc(-c2ccccc2F)c1-c1ccnc(NC(=O)c2ccc3ccccc3c2)n1	100 to 1000 nM
Cc1onc(-c2ccccc2)c1-c1ccnc(Nc2ccc(N(C)C)cc2)c1	< 100 nM

Incoming: Report Ki under test system activated JNK3 (Homo sapiens, UniProt P53779) for "COc1cccc(C(=O)Nc2nccc(-c3c(-c4cccc(OCc5ccccc5)c4)noc3C)n2)c1" .
Outgoing: 100 to 1000 nM

Incoming: Report Ki under test system activated JNK3 (Homo sapiens, UniProt P53779) for "Cc1onc(-c2ccccc2)c1-c1ccnc(NC(=O)c2ccccc2)n1" .
Outgoing: 100 to 1000 nM

Incoming: Report Ki under test system activated JNK3 (Homo sapiens, UniProt P53779) for "COCc1onc(-c2ccc(F)cc2)c1-c1ccnc(NC2CCCCC2)n1" .
Outgoing: < 100 nM

----------
# Ki annotations
- Target under test: activated JNK3 (Homo sapiens)
- Construct: One such construct encodes amino acid residues Ser40-Glu402 of JNK3α1 and is preceded by Met and Gly residues; Met-Gly (initiation Met plus Gly added to create the NcoI site) (N)
- Measurement description: JNK3 inhibition, spectrophotometric coupled-enzyme assay
- Condition summary: read-out: Activity in the JNK3 Inhibition Assay (Ki rating)

Compound	Target under test	Ki
Cc1onc(-c2ccccc2)c1-c1ccnc(NC(=O)c2ccc(C#N)cc2)n1	activated JNK3 (Homo sapiens)	0.1 to 1 µM
Cc1ccccc1-c1noc(C)c1-c1ccnc(Nc2cccc(C#N)c2)n1	activated JNK3 (Homo sapiens)	< 0.1 µM
Cc1onc(-c2cccc(F)c2)c1-c1ccnc(NC(=O)c2cccc(Cl)c2)n1	activated JNK3 (Homo sapiens)	0.1 to 1 µM

Incoming: Entry "COc1ccc2cc(Nc3nccc(-c4c(-c5ccccc5C)noc4C)n3)ccc2c1" needs its Ki filled in; supply it.
Outgoing: < 0.1 µM

Incoming: Entry "Cc1onc(-c2ccccc2F)c1-c1ccnc(NC(=O)c2ccc(F)cc2)n1" needs its Ki filled in; supply it.
Outgoing: 0.1 to 1 µM

Incoming: Entry "Cc1onc(C2CC2)c1-c1ccnc(Nc2ccccc2)n1" needs its Ki filled in; supply it.
Outgoing: > 1 µM

Incoming: Entry "Cc1onc(-c2c(F)cccc2F)c1-c1ccnc(Nc2ccc(F)cc2)n1" needs its Ki filled in; supply it.
Outgoing: < 0.1 µM

Incoming: Entry "Fc1ccc(-c2noc(COCc3ccccc3)c2-c2ccnc(NC3CCCCC3)n2)cc1" needs its Ki filled in; supply it.
Outgoing: < 0.1 µM

Incoming: Entry "OCc1onc(-c2ccc(F)cc2)c1-c1ccnc(NCCc2ccccn2)n1" needs its Ki filled in; supply it.
Outgoing: < 0.1 µM

Incoming: Entry "Cc1onc(-c2c(F)cccc2F)c1-c1ccnc(NC(=O)c2ccc(F)cc2)n1" needs its Ki filled in; supply it.
Outgoing: 0.1 to 1 µM

Incoming: Entry "Cc1ccc2ccccc2c1Nc1nccc(-c2c(-c3ccccc3)noc2C)n1" needs its Ki filled in; supply it.
Outgoing: 0.1 to 1 µM

Incoming: Entry "COC(=O)c1ccc2cc(Nc3nccc(-c4c(-c5ccccc5)noc4C)n3)ccc2c1" needs its Ki filled in; supply it.
Outgoing: < 0.1 µM

Incoming: Entry Cc1onc(-c2ccccc2)c1-c1ccnc(NCC2CCCO2)n1 (stereo not shown) needs its Ki filled in; supply it.
Outgoing: 0.1 to 1 µM

----------
# pKi annotations
- Target under test: activated JNK3 (Homo sapiens, UniProt P53779)
- Construct: One such construct encodes amino acid residues Ser40-Glu402 of JNK3α1 and is preceded by Met and Gly residues; Met-Gly (initiation Met plus Gly added to create the NcoI site) (N)
- Measurement description: JNK3 inhibition, spectrophotometric coupled-enzyme assay
- Condition summary: read-out: Activity in the JNK3 Inhibition Assay (Ki rating)
- Procedure: A BLAST search of the EST database using the published JNK3α1 cDNA as a query identified an EST clone (#632588) that contained the entire coding sequence for human JNK3α1. […] Compounds were assayed for the inhibition of JNK3 by a spectrophotometric coupled-enzyme assay. […] The decrease of absorbance at 340 nm was monitored as a function of time. […]
pKi: −log10 of the molar value.

COc1cc(C(=O)Nc2nccc(-c3c(-c4cccc(F)c4)noc3C)n2)cc(OC)c1OC 6.00 to 7.00
COc1ccc(C(=O)Nc2nccc(-c3c(-c4ccccc4C)noc3C)n2)cc1 6.00 to 7.00
Cc1onc(-c2ccccc2)c1-c1ccnc(Nc2ccc(-c3ccccc3)cc2)n1 > 7.00
CCCC(=O)Nc1nccc(-c2c(-c3ccccc3)noc2C)n1 6.00 to 7.00
COc1cc(OC)cc(C(=O)Nc2nccc(-c3c(-c4ccccc4F)noc3C)n2)c1 6.00 to 7.00
COc1cc(OC)cc(C(=O)Nc2nccc(-c3c(-c4c(F)cccc4F)noc3C)n2)c1 6.00 to 7.00
Cc1onc(-c2cccc(F)c2)c1-c1ccnc(NC(=O)c2ccc(F)cc2)n1 6.00 to 7.00
CC(=O)c1ccc(Nc2nccc(-c3c(-c4ccccc4)noc3C)n2)cc1 > 7.00

Incoming: Entry "Cc1cccc(Nc2nccc(-c3c(-c4ccccc4C)noc3C)n2)c1" needs its pKi filled in; supply it.
Outgoing: > 7.00

----------
- Target under test: activated JNK3 (Homo sapiens)
- Construct: One such construct encodes amino acid residues Ser40-Glu402 of JNK3α1 and is preceded by Met and Gly residues; Met-Gly (initiation Met plus Gly added to create the NcoI site) (N)
- Measurement description: JNK3 inhibition, spectrophotometric coupled-enzyme assay
- Condition summary: read-out: Activity in the JNK3 Inhibition Assay (Ki rating)
pKi: −log10 of the molar value.
Reported property: pKi

Example entries begin here.
Cc1onc(-c2cc(F)ccc2F)c1-c1ccnc(Nc2ccccc2)n1 6.00 to 7.00
CCc1onc(-c2ccccc2)c1-c1ccnc(Nc2ccccc2)c1 > 7.00
CCOC(=O)N1CCC(Nc2nccc(-c3c(-c4ccccc4)noc3C)n2)CC1 > 7.00
Cc1onc(-c2ccc(F)cc2)c1-c1ccnc(Nc2ccccc2)n1 > 7.00
Cc1onc(-c2cccc([N+](=O)[O-])c2)c1-c1ccnc(Nc2ccccc2)n1 6.00 to 7.00
Cc1onc(-c2ccccc2)c1-c1ccnc(Nc2ccccc2)c1 > 7.00

Incoming: Report pKi under test system activated JNK3 (Homo sapiens) for "COc1ccc(C(=O)Nc2nccc(-c3c(-c4c(F)cccc4F)noc3C)n2)cc1" .
Outgoing: 6.00 to 7.00

Incoming: Report pKi under test system activated JNK3 (Homo sapiens) for "Cc1onc(-c2ccccc2Cl)c1-c1ccnc(Nc2ccccc2)n1" .
Outgoing: 6.00 to 7.00

Incoming: Report pKi under test system activated JNK3 (Homo sapiens) for "Cc1onc(-c2ccccc2)c1-c1ccnc(NC2CCC(=O)CC2)n1" .
Outgoing: > 7.00

Incoming: Report pKi under test system activated JNK3 (Homo sapiens) for "CC(=O)Nc1nccc(-c2c(-c3ccccc3)noc2C)n1" .
Outgoing: 6.00 to 7.00

Incoming: Report pKi under test system activated JNK3 (Homo sapiens) for "Cc1onc(-c2ccccc2)c1-c1ccnc(NC2CCN(Cc3ccccc3)CC2)n1" .
Outgoing: 6.00 to 7.00

Incoming: Report pKi under test system activated JNK3 (Homo sapiens) for "COc1cc(C(=O)Nc2nccc(-c3c(-c4cccc(C#N)c4)noc3C)n2)cc(OC)c1OC" .
Outgoing: < 6.00

Incoming: Report pKi under test system activated JNK3 (Homo sapiens) for "COc1cc(C(=O)Nc2nccc(-c3c(-c4ccccc4F)noc3C)n2)cc(OC)c1OC" .
Outgoing: 6.00 to 7.00

Incoming: Report pKi under test system activated JNK3 (Homo sapiens) for "Cc1cccc(C(=O)Nc2nccc(-c3c(-c4ccccc4)noc3C)n2)c1" .
Outgoing: 6.00 to 7.00

Incoming: Report pKi under test system activated JNK3 (Homo sapiens) for "Cc1onc(-c2ccccc2)c1-c1ccnc(NC(=O)c2ccc(F)cc2)n1" .
Outgoing: 6.00 to 7.00

Incoming: Report pKi under test system activated JNK3 (Homo sapiens) for "COc1cc(C(=O)Nc2nccc(-c3c(-c4ccccc4C(F)(F)F)noc3C)n2)cc(OC)c1OC" .
Outgoing: < 6.00

Incoming: Report pKi under test system activated JNK3 (Homo sapiens) for "COc1cccc(C(=O)Nc2nccc(-c3c(-c4ccccc4C(F)(F)F)noc3C)n2)c1" .
Outgoing: < 6.00

Incoming: Report pKi under test system activated JNK3 (Homo sapiens) for "Cc1onc(-c2cccc(C(F)(F)F)c2)c1-c1ccnc(Nc2ccccc2)n1" .
Outgoing: 6.00 to 7.00

Incoming: Report pKi under test system activated JNK3 (Homo sapiens) for "Cc1onc(-c2ccccc2)c1-c1ccnc(NC(=O)c2cccs2)n1" .
Outgoing: > 7.00

Incoming: Report pKi under test system activated JNK3 (Homo sapiens) for "CC(=O)c1cccc(Nc2nccc(-c3c(-c4ccccc4)noc3C)n2)c1" .
Outgoing: > 7.00

Incoming: Report pKi under test system activated JNK3 (Homo sapiens) for "COc1cc(C(=O)Nc2nccc(-c3c(-c4ccccc4C)noc3C)n2)cc(OC)c1OC" .
Outgoing: 6.00 to 7.00

Incoming: Report pKi under test system activated JNK3 (Homo sapiens) for "Cc1onc(-c2ccccc2)c1-c1ccnc(Nc2ccc(S(C)(=O)=O)cc2)n1" .
Outgoing: > 7.00

Incoming: Report pKi under test system activated JNK3 (Homo sapiens) for "Cc1onc(-c2ccccc2)c1-c1ccnc(NC(=O)c2cccc([N+](=O)[O-])c2)n1" .
Outgoing: > 7.00

Incoming: Report pKi under test system activated JNK3 (Homo sapiens) for "Cc1onc(-c2ccccc2F)c1-c1ccnc(NC(=O)c2cccc(Cl)c2)n1" .
Outgoing: 6.00 to 7.00

Incoming: Report pKi under test system activated JNK3 (Homo sapiens) for "COc1ccc(C(=O)Nc2nccc(-c3c(-c4ccccc4)noc3C)n2)cc1OC" .
Outgoing: 6.00 to 7.00

Incoming: Report pKi under test system activated JNK3 (Homo sapiens) for "Cc1onc(-c2ccccc2)c1-c1ccnc(Nc2ccccc2)n1" .
Outgoing: > 7.00

Incoming: Report pKi under test system activated JNK3 (Homo sapiens) for "COc1cccc(C(=O)Nc2nccc(-c3c(-c4cccc(F)c4)noc3C)n2)c1" .
Outgoing: 6.00 to 7.00

Incoming: Report pKi under test system activated JNK3 (Homo sapiens) for "CC(=O)Nc1nccc(-c2c(-c3ccc(F)cc3)noc2C)n1" .
Outgoing: < 6.00

Incoming: Report pKi under test system activated JNK3 (Homo sapiens) for "Cc1cccc(C(=O)Nc2nccc(-c3c(-c4c(F)cccc4F)noc3C)n2)c1" .
Outgoing: 6.00 to 7.00

Incoming: Report pKi under test system activated JNK3 (Homo sapiens) for "COc1ccc(-c2noc(C)c2-c2ccnc(Nc3ccccc3)n2)c(OC)c1" .
Outgoing: < 6.00
